Target: c-Myc template DNA (quadruplex)
Assay: Quadruplex binding assay (STOP assay, Taq polymerase arrest, capillary electrophoresis)
Assay type: biochemical
Conditions: Table 1E; concentration at which 50% of the DNA was arrested; read-out: STOP Data
value-kind: IC50 (µM)
Kindly answer with a numeric value in µM, unit omitted.

Problem: Item CN1CCCC1CCNC(=O)c1cn2c3c(c(N4CCC(c5cnccn5)C4)c(F)cc3c1=O)Oc1ccccc1-2 (centres unmarked) [Example 81] has what recorded IC50?
Result: 5.7
